- SUBJECT OF TEST: UDP-N-acetylenolpyruvoylglucosamine reductase (Escherichia coli K-12)
- Sequence (P08373 whole entry): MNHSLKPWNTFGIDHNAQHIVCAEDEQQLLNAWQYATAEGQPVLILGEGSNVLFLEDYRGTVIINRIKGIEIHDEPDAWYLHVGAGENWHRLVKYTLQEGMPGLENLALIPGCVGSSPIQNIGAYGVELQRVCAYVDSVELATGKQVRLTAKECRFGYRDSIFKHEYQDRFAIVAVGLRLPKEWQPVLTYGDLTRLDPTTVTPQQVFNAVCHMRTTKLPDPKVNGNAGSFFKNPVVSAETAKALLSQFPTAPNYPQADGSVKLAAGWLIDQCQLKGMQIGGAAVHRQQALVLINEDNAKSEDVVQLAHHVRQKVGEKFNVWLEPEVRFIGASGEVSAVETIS
- METHOD: Inhibitory concentration against MurB enzyme in Escherichia coli
Catalogue of IC50 values

>  <CHEMICAL STRUCTURE>
O=C1C(Cc2ccc(Cl)cc2Cl)C(=O)N(c2ccc(Cl)cc2)N1c1ccc(Cl)cc1

>  <OP>
=

>  <IC50, µM>
11

$$$$
>  <CHEMICAL STRUCTURE>
O=C1C(Cc2cccc(C(F)(F)F)c2)C(=O)N(c2ccc(Cl)cc2)N1c1ccc(Cl)cc1

>  <OP>
=

>  <IC50, µM>
18

$$$$
>  <CHEMICAL STRUCTURE>
CCN(CCC1C(=O)N(c2ccc(Cl)cc2)N(c2ccc(Cl)cc2)C1=O)Cc1ccccc1

>  <OP>
>

>  <IC50, µM>
50

$$$$
>  <CHEMICAL STRUCTURE>
COc1cccc(CC2C(=O)N(c3ccc(Cl)cc3)N(c3ccc(Cl)cc3)C2=O)c1

>  <OP>
=

>  <IC50, µM>
50

$$$$
>  <CHEMICAL STRUCTURE>
O=C1C(Cc2cc(C(F)(F)F)cc(C(F)(F)F)c2)C(=O)N(c2ccc(Cl)cc2)N1c1ccc(Cl)cc1

>  <OP>
=

>  <IC50, µM>
12

$$$$
>  <CHEMICAL STRUCTURE>
O=C1C(Cc2ccccc2)C(=O)N(c2ccc(Cl)cc2)N1c1ccc(Cl)cc1

>  <OP>
>

>  <IC50, µM>
50

$$$$
>  <CHEMICAL STRUCTURE>
O=C(CCCC1C(=O)N(c2ccc(Cl)cc2)N(c2ccc(Cl)cc2)C1=O)c1ccc(F)cc1

>  <OP>
=

>  <IC50, µM>
10

$$$$
>  <CHEMICAL STRUCTURE>
O=C1C(CCCCc2ccccc2)C(=O)N(c2ccc(Cl)cc2)N1c1ccc(Cl)cc1

>  <OP>
=

>  <IC50, µM>
5.6

$$$$

====

pIC50: −log10 of the molar value.
Notes on pIC50 obtained with UDP-N-acetylglucosamine 1-carboxyvinyltransferase (Escherichia coli K-12).
Sequence (P0A749 whole entry): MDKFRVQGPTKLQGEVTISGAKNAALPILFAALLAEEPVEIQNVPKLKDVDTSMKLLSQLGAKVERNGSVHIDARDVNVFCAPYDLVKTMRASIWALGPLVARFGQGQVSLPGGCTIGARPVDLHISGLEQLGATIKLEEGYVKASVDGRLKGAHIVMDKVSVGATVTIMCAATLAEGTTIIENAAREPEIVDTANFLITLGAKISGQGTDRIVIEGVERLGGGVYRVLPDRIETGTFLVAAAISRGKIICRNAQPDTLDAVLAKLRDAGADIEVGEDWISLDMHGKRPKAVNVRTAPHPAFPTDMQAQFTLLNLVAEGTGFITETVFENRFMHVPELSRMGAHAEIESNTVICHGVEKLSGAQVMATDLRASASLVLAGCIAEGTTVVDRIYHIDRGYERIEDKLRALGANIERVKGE

>  <CHEMICAL STRUCTURE>
CC1(CCOCc2ccccc2)C(=O)N(c2ccc(Cl)cc2)N(c2ccc(Cl)cc2)C1=O

>  <pIC50>
< 4.30

$$$$
>  <CHEMICAL STRUCTURE>
O=C1C(Cc2ccccc2Cl)C(=O)N(c2ccc(Cl)cc2)N1c1ccc(Cl)cc1

>  <pIC50>
< 4.30

$$$$
>  <CHEMICAL STRUCTURE>
N#Cc1ccccc1-c1ccc(CC2C(=O)N(c3ccc(Cl)cc3)N(c3ccc(Cl)cc3)C2=O)cc1

>  <pIC50>
< 4.30

$$$$
>  <CHEMICAL STRUCTURE>
CC1(CCCCCCc2ccccc2)C(=O)N(c2ccc(Cl)cc2)N(c2ccc(Cl)cc2)C1=O

>  <pIC50>
< 4.30

$$$$
>  <CHEMICAL STRUCTURE>
COc1cccc(CC2C(=O)N(c3ccc(Cl)cc3)N(c3ccc(Cl)cc3)C2=O)c1

>  <pIC50>
< 4.30

$$$$
>  <CHEMICAL STRUCTURE>
CCN(CC)CCC1C(=O)N(c2ccc(Cl)cc2)N(c2ccc(Cl)cc2)C1=O

>  <pIC50>
< 4.30

$$$$
>  <CHEMICAL STRUCTURE>
O=C1C(Cc2ccc(Cl)cc2Cl)C(=O)N(c2ccc(Cl)cc2)N1c1ccc(Cl)cc1

>  <pIC50>
< 4.30

$$$$
>  <CHEMICAL STRUCTURE>
O=C1N(c2ccc(Cl)cc2)N(c2ccc(Cl)cc2)C(=O)C1(CCOCc1ccccc1)CCOCc1ccccc1

>  <pIC50>
4.70

$$$$
>  <CHEMICAL STRUCTURE>
CCC(CC)CC1C(=O)N(c2ccc(Cl)cc2)N(c2ccc(Cl)cc2)C1=O

>  <pIC50>
< 4.30

$$$$
>  <CHEMICAL STRUCTURE>
O=C1C(Cc2cccc(C(F)(F)F)c2)C(=O)N(c2ccc(Cl)cc2)N1c1ccc(Cl)cc1

>  <pIC50>
< 4.30

$$$$
>  <CHEMICAL STRUCTURE>
O=C1C(CCCCc2ccccc2)C(=O)N(c2ccc(Cl)cc2)N1c1ccc(Cl)cc1

>  <pIC50>
4.62

$$$$
>  <CHEMICAL STRUCTURE>
O=C1C(CCSCc2ccccc2)C(=O)N(c2ccc(Cl)cc2)N1c1ccc(Cl)cc1

>  <pIC50>
5.01

$$$$
>  <CHEMICAL STRUCTURE>
CCN(CCC1C(=O)N(c2ccc(Cl)cc2)N(c2ccc(Cl)cc2)C1=O)Cc1ccccc1

>  <pIC50>
< 4.30

$$$$
>  <CHEMICAL STRUCTURE>
O=C1C(CCOCc2ccccc2)C(=O)N(c2ccc(Cl)cc2)N1c1ccc(Cl)cc1

>  <pIC50>
4.48

$$$$
>  <CHEMICAL STRUCTURE>
Cc1c(OCC(=O)c2ccc(F)cc2F)n(-c2ccc(Cl)cc2)n(-c2ccc(Cl)cc2)c1=O

>  <pIC50>
< 4.30

$$$$
>  <CHEMICAL STRUCTURE>
CC1(CC(=O)c2ccc(F)cc2F)C(=O)N(c2ccc(Cl)cc2)N(c2ccc(Cl)cc2)C1=O

>  <pIC50>
< 4.30

$$$$
>  <CHEMICAL STRUCTURE>
O=C(CCC1C(=O)N(c2ccc(Cl)cc2)N(c2ccc(Cl)cc2)C1=O)c1ccc(F)cc1

>  <pIC50>
4.33

$$$$
>  <CHEMICAL STRUCTURE>
O=C(CCCC1C(=O)N(c2ccc(Cl)cc2)N(c2ccc(Cl)cc2)C1=O)c1ccc(F)cc1

>  <pIC50>
4.49

$$$$
>  <CHEMICAL STRUCTURE>
O=C1C(CCCc2ccccc2)C(=O)N(c2ccc(Cl)cc2)N1c1ccc(Cl)cc1

>  <pIC50>
4.35

$$$$
>  <CHEMICAL STRUCTURE>
O=C1C(CCc2ccccc2)C(=O)N(c2ccc(Cl)cc2)N1c1ccc(Cl)cc1

>  <pIC50>
< 4.30

$$$$
>  <CHEMICAL STRUCTURE>
O=C1C(Cc2cc(C(F)(F)F)cc(C(F)(F)F)c2)C(=O)N(c2ccc(Cl)cc2)N1c1ccc(Cl)cc1

>  <pIC50>
< 4.30

$$$$
>  <CHEMICAL STRUCTURE>
O=C(CC1C(=O)N(c2ccc(Cl)cc2)N(c2ccc(Cl)cc2)C1=O)c1ccc(F)cc1

>  <pIC50>
5.08

$$$$
>  <CHEMICAL STRUCTURE>
O=C1C(Cc2ccccc2)C(=O)N(c2ccc(Cl)cc2)N1c1ccc(Cl)cc1

>  <pIC50>
< 4.30

$$$$
>  <CHEMICAL STRUCTURE>
CCCCCCCC1C(=O)N(c2ccc(Cl)cc2)N(c2ccc(Cl)cc2)C1=O

>  <pIC50>
< 4.30

$$$$
